Record form. Attribute: pIC50. Fill in for each entry.
# Test system: Panc-1 cells
# Experimental Protocol: MTT cell viability assay, Panc-1
# Assay type: cell-based
# Particulars: Homo sapiens, PANC-1, 48 h, MTT, 48 h; pancreatic cancer cells; read-out: Cytotoxicity (IC50) Panc-1
Reminder that pIC50 means the negative base-10 logarithm of the concentration expressed in mol/L.

Value of pIC50 reported for the compound CCCc1cc2c(c(O)c1[C@@H]1OC(CO)[C@@H](O)C(O)C1O)[C@@H]1CC(C)=CC[C@H]1C(C)(C)O2 (stereo partly drawn) is 5.39

Value of pIC50 reported for the compound CCCCCc1cc2c(c(O)c1[C@@H]1OC(CO)[C@@H](O)C(O)C1O)-c1cc(C)ccc1C(C)(C)O2 (stereo partly drawn) [Compound 4b, Cannabinol-2-C-β-D-glucopyranoside] is 4.86

Value of pIC50 reported for the compound CCCCCc1cc2c(c(O)c1[C@@H]1OC(CO)[C@@H](O)C(O)C1O)[C@@H]1C=C(C)CC[C@H]1C(C)(C)O2 (stereo partly drawn) is 5.50
